Biological target: cAMP and cAMP-inhibited cGMP 3',5'-cyclic phosphodiesterase 10A (Homo sapiens, UniProt Q9Y233)
Sequence (Q9Y233 whole entry): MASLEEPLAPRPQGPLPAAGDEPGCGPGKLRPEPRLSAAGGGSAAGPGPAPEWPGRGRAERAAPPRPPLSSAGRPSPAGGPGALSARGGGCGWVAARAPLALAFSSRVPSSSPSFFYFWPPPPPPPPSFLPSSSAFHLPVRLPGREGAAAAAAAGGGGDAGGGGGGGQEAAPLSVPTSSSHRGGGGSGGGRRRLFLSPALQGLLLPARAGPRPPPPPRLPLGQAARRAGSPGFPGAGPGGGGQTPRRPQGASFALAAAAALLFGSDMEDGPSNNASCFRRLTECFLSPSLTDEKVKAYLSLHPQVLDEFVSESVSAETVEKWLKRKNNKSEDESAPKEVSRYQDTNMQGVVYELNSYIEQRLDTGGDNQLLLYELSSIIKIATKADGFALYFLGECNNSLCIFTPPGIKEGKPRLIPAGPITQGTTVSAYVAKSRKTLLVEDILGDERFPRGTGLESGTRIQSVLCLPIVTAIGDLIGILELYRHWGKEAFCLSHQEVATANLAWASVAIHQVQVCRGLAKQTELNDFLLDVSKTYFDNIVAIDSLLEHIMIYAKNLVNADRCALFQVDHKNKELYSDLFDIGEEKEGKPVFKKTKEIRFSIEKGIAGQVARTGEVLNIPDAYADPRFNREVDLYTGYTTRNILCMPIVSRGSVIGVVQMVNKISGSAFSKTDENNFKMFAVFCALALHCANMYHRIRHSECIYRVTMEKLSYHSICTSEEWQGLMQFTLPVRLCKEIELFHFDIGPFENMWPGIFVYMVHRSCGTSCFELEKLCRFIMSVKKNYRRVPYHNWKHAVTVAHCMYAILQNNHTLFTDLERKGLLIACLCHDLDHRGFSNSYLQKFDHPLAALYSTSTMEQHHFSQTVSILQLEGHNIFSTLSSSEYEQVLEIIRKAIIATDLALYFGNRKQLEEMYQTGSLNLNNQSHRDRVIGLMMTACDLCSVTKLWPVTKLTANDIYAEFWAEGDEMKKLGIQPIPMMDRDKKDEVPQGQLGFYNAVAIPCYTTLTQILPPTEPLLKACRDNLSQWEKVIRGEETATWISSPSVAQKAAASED
Assay: Diaxonhit Phosphodiesterase Assay: The phosphodiesterase assay was developed using the LANCE cAMP kit (PerkinElmer). The assay buffer contained HBSS with 5 mM HEPES, 0.1% BSA, and 1.5 mM MgCl2, pH 7.4. PDE10A (BPS Bioscience) was used at 200 pg/well (with a specific activity of 3200 pmole/min/ug with assay conditions: 10 mM Tris-HCl, pH 7.4, 10 mM MgCl2, 1 mM MnCl2, 200 uM cAMP, 2.5 kU 5' nucleotidase, 37° C., 20 min) and PDE4D3 (BPS Bioscience) was used at 100 pg/well (with a specific activity of 32713 pmole/min/ug with assay conditions: 10 mM Tris-HCl, pH 7.4, 10 mM MgCl2, 1 mM MnCl2, 200 uM cAMP, 2.5 kU 5' nucleotidase, 37° C., 20 min). The Biotin-cAMP tracer, supplied in 10 mmol/L Tris-HCl buffered (pH 8.0) salt solution with 1 mmol/L ethylenediaminetetraacetic acid (EDTA), 0.1% bovine serum albumin (BSA), and 0.05% sodium azide, is used at a dilution of 1/375. The assay detection mixture contained the LANCE Eu-W8044 labeled streptavidin 1/2250 (supplied in 50 mmol/L Tris-HCl buffer).
REPORTED_ENDPOINT: pIC50
Hey, just a heads up that pIC50 is the negative log base 10 of the concentration in molar.

Example entries and their recorded answers appear below.
• CCn1ncc2c(Cl)c(Cc3cncc4cc(OC)c(OC)cc34)cnc21 = 6.48
• COc1cc2c(Cc3ccc4nc(C)ccc4c3)cnc(CC(C)C)c2cc1OC = 7.51
• COc1cc2cncc(Cc3ccc4nc(-c5ccc(CO)cc5)oc4c3)c2cc1OC = 7.70

Query: Give recorded pIC50. CCc1ncc(Cc2ccc3cccc(NS(N)(=O)=O)c3n2)c2cc(OC)c(OC)cc12
Reply: 9.28

Query: Input CCCc1ncc(Cc2ccc3cccc(NS(N)(=O)=O)c3n2)c2cc(OC)c(OC)cc12 , output reported pIC50.
Reply: 9.09

Query: Please look at this compound and report its pIC50: COc1cc2cncc(Cc3cnc4ccc(OCC(N)=O)cc4c3)c2cc1OC
Reply: 8.60

Query: Determine its reported pIC50: CCc1ncc(Cc2ccc3cccc(NC(C)=O)c3n2)c2cc(OC)c(OC)cc12
Reply: 7.77

Query: Input CCc1ncc(Cc2cc3ccccc3cn2)c2cc(OC)c(OC)cc12 , output reported pIC50.
Reply: 7.49

Query: Note down pIC50 recorded for COc1cc2cncc(Cc3ccc4nc(C)ccc4c3)c2cc1OC
Reply: 8.19

Query: Return pIC50 (reported value) for this compound: CCc1ncc(Cc2ccc3cccc(OCc4nnn[nH]4)c3n2)c2cc(OC)c(OC)cc12
Reply: 7.51
